EXPERIMENT NOTES: Tmax in Beagle dog at 2 mg/kg, po after 4 hrs
Type: ADME, organism-based, Canis lupus familiaris
Parameters: dose 2 mg/kg, route oral
MEASUREMENT CONTEXT: in vivo

{"CHEM SMILES": "COc1ccc(OC(=O)N(CC(=O)O)Cc2ccc(OCCc3nc(-c4ccccc4)oc3C)cc2)cc1", "Tmax / h": 1}

* * *

EXPERIMENT NOTES: Bile excretion of compound in bile duct-cannulated orally dosed Sprague-Dawley rat within 24 hrs
Assay type: ADME, organism-based
MEASUREMENT CONTEXT: po, read-out: Activity
Listed here: items and their measured dose excreted at 24 h.

{"CHEM SMILES": "Cc1oc(-c2ccccc2)nc1CCOc1ccc(CN(CC(=O)O)C(=O)Oc2ccc(O)cc2)cc1", "dose excreted at 24 h / %": 11}
{"CHEM SMILES": "COc1ccc(OC(=O)N(CC(=O)O)Cc2ccc(OCCc3nc(-c4ccccc4)oc3C)cc2)cc1", "dose excreted at 24 h / %": 65}
